# subject-of-test: Cytochrome P450 2D6 (Homo sapiens, UniProt P10635)
# Sequence (P10635 whole entry): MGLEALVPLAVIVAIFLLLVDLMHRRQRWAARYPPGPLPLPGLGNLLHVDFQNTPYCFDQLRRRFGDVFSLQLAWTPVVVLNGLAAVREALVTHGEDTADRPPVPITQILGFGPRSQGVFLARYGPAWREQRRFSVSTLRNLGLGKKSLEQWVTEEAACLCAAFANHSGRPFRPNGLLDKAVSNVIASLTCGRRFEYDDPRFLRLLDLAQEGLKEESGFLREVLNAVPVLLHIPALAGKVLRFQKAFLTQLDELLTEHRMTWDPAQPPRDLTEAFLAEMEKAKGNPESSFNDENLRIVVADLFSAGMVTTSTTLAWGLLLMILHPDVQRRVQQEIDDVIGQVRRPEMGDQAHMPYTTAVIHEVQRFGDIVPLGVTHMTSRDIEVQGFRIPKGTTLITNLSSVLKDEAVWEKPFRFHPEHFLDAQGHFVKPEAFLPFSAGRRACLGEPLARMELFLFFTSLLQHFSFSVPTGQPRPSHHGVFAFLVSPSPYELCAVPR
pIC50: −log10 of the molar value.
Kindly state pIC50 for each of the entries shown.

mol-smiles	pIC50
Cn1cnc(S(=O)(=O)N2C[C@@H]3[C@H](C2)[C@@]3(CNC(=O)c2ccccc2C(F)(F)F)c2ccccn2)c1	< 4.52

Let us move to another entry and its pIC50.
Q: pIC50 lookup needed for "Cn1cnc(S(=O)(=O)N2C[C@@H]3[C@H](C2)[C@@]3(CNC(=O)c2ccccc2C(F)(F)F)CC2CC2)c1" , thanks.
A: < 4.52

###

# method-description: AUC (0 to 6 hrs) in rat brain at 10 mg/kg, sc
# Assay type: ADME, organism-based
# Design: time < 6 hr, dose 10 mg/kg, route subcutaneous
property-label: AUC(0-t) at 6 h (µM·h)
One number for each entry, in µM·h.

Q: Dear colleague, I am looking for the recorded AUC(0-t) at 6 h of the following compound: "Cn1cnc(S(=O)(=O)N2C[C@@H]3[C@H](C2)[C@@]3(CNC(=O)c2ccccc2C(F)(F)F)CC2CC2)c1"
A: 0.431
